Data provenance is paper PMC5607274.

System under test: human recombinant Yes [a.a. 2–543 (end)] (Homo sapiens)
Construct: human recombinant Yes [a.a; 2–543 (end)]; purchased BPS Bioscience 40488
Protocol description: ADP-Glo kinase assay, inhibition rates of Yes phosphorylation activity (first and second screening)
Format: biochemical
Condition parameters: first screening; mean of n = 4 wells; 10 μmol L−1 compound
Quantity measured: First screening IR (inhibition rate) (%)
Report the figure in % without appending any unit label.

                                   compound                     quantity_measured  result_value
0  CN(C1(C)CCS(=O)(=O)C1)S(=O)(=O)c1ccc(Cl)c(Cl)c1 (centres unmarked) [Compound Z131022412]  First screening IR (inhibition rate)             2
1  CCc1c(C(=O)Nc2n[nH]c(-c3ccc(C)cc3)n2)cnn1-c1ccccc1 [Compound Z332932578]  First screening IR (inhibition rate)             1
2  CC(C)(C)OC(=O)N1CCN(C(=O)c2cc(-c3ccccc3)nc3c2cnn3Cc2ccncc2)CC1 [Compound Z238073806]  First screening IR (inhibition rate)             5
3  CN(Cc1cnn(-c2ccccc2)c1)C(=O)c1ccc(Cl)c(S(=O)(=O)N2CCCCCC2)c1 [Compound Z115152726]  First screening IR (inhibition rate)             4

Value of measured First screening IR (inhibition rate) for the entry CC(=O)N1CCc2cc(NC(=O)c3ccccc3SCc3cn4ccccc4n3)ccc21 [Compound Z285525778] : -11

###

System under test: human recombinant Yes [a.a. 2–543 (end)] (Homo sapiens, UniProt P07947)
Construct: human recombinant Yes [a.a; 2–543 (end)]
Sequence (P07947 2-543): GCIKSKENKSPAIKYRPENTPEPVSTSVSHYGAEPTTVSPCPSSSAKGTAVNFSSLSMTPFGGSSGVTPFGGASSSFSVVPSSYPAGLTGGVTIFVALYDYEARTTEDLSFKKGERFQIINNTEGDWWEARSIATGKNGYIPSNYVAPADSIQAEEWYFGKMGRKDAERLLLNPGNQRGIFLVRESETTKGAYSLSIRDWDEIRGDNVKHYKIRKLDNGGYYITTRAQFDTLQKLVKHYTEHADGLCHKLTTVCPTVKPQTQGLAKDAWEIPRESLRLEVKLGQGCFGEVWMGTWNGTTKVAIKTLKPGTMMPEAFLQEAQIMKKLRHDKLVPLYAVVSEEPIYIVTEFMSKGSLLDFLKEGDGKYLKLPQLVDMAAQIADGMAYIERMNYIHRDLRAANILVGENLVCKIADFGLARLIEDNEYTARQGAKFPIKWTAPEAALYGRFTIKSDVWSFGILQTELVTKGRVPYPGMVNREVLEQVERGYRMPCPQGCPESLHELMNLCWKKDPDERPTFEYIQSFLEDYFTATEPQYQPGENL
Protocol description: ADP-Glo kinase assay, IC50 determination (dose-response curves) for Yes
Condition parameters: 5.5-nmol L−1 Yes, 0.013-mmol L−1 ATP, 0.2-mg mL−1 substrate (poly Glu-Tyr, 4:1)
Quantity measured: IC50 (µM)
Report the figure in µM without appending any unit label.

In [3]: df
Out[3]:
                               smiles_input  result_value
0  Cc1cc(N2CCc3c(ncn3C3CC3)C2)c2cc(OC(F)F)ccc2n1            20

Next:
Value of measured IC50 for the entry `O=C(CSc1ccc2ccccc2n1)Nc1nsc(-c2ccc(Cl)cc2)n1` : 37.4

###

System under test: human recombinant Yes [a.a. 2–543 (end)] (Homo sapiens, UniProt P07947)
Construct: human recombinant Yes [a.a; 2–543 (end)]; purchased BPS Bioscience 40488
Protocol description: ADP-Glo kinase assay, inhibition rates of Yes phosphorylation activity (first and second screening)
Assay type: biochemical
Condition parameters: first screening; mean of n = 4 wells; 10 μmol L−1 compound
Quantity measured: First screening IR (inhibition rate) (%)
Report the figure in % without appending any unit label.

Examples from the recorded data:
                                   compound                     quantity_measured  result_value
0  CC(C)n1ncc2c(C(=O)Nc3ccc(F)cc3Cl)cc(-c3ccco3)nc21  First screening IR (inhibition rate)            21
1        NCC1CCCS1(=O)=O (stereo not shown)  First screening IR (inhibition rate)             6
2  CC(C)CCc1nc(CN2C(=O)NC3(CCN(C(=O)OC(C)(C)C)CC3)C2=O)cs1  First screening IR (inhibition rate)            -2
3  Cc1ccc(Cn2c(=O)c3ccccc3n3c(CCC(=O)NCCCN4CCOCC4)nnc23)cc1  First screening IR (inhibition rate)             2
4  Cc1cc(C(=O)CCC(=O)NCCc2c[nH]c3ccccc23)c(C)s1  First screening IR (inhibition rate)            21
5  O=c1[nH]c2ccccc2c2nc(-c3ccc(CSc4nc5ccccc5[nH]4)cc3)nn12  First screening IR (inhibition rate)            16
6  CCn1c2ccccc2c2cc(NC(=O)COC(=O)c3c4c(nc5ccccc35)CCCC4)ccc21  First screening IR (inhibition rate)             1
7  CCc1cc(N2CCC(NCc3c(Cl)cccc3N3CCCC3)CC2)ncn1  First screening IR (inhibition rate)             0
8  COc1ccc(S(=O)(=O)N(C)Cc2ccc3c(c2)OCO3)cc1Br  First screening IR (inhibition rate)           -25
9  CC(C)n1ncc2c(C(=O)N3CCN(CC(=O)N4CCOCC4)CC3)cc(-c3ccccc3)nc21  First screening IR (inhibition rate)             7

Value of measured First screening IR (inhibition rate) for the entry `Cc1ccccc1-n1c(SCC(=O)Nc2ccc(N3CCOCC3)cc2)nnc1-c1ccncc1` : -3

Value of measured First screening IR (inhibition rate) for the entry `NC(=O)c1cc(NC(=O)c2cccnc2Nc2cccc(F)c2)n[nH]1` : 2

Value of measured First screening IR (inhibition rate) for the entry `Cn1ncc2c(N(Cc3ccccc3F)C3CC3)ncnc21` : -21

Value of measured First screening IR (inhibition rate) for the entry CCCCn1c(CN2CCN(C(=O)C3CCCO3)CC2)nc2c1c(=O)[nH]c(=O)n2Cc1ccccc1 (stereo not shown) : 1

Value of measured First screening IR (inhibition rate) for the entry NC(=O)C1CCCN(c2nc(-c3ccncc3)nc3ccccc23)C1 (stereo not shown) : 13

Value of measured First screening IR (inhibition rate) for the entry Cc1ccnc(NCC2CCN(Cc3cccc(C(N)=O)c3)C2)c1 (stereo not shown) : -3
